protocol_notes: NCI Yeast Anticancer Drug Screen. Data for the rad50 strain (AID 155);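 further: 0% = growth of vehicle-only cultures of the same strain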
assay_conditions: S. cerevisiae rad50 strain growth inhibition; at 50.0 µM; active compounds read high
This is part of a sample that, as a whole, favours compounds with a hit. Of some 79,000 tested, about 15% had one in any assay. The source made the active and inactive calls. No stated cut-off is given here; in the data, active means growth inhibition above about 70%; inactive means the rest.

compound: CC(C)CC(CC(C)C)NCC(C)OC(=O)C(c1ccccc1)c1ccccc1 (stereo unspecified)
growth inhibition: 29.2% (inactive)

compound: CC1=C(C)C(N2CCOCC2)CS(=O)(=O)O1 (stereo unspecified)
growth inhibition: 6.15% (inactive)

compound: COc1ccc(CC/C(=N/O)c2ccccc2)cc1
growth inhibition: 97% (active)

compound: CC1(C)NC(=O)C(C)(C)NC1=O
growth inhibition: -12.9% (inactive)

compound: Cc1c2cnccc2c(C)c2c1c1ccccc1n2CCOC(=O)c1ccccc1
growth inhibition: 96.4% (active)

compound: CCOc1ccccc1NC(=O)/C(Cl)=C(\Cl)C(=O)O
growth inhibition: 99% (active)

compound: O=C(O)/C=C/C(=O)Nc1cccc2c1C(=O)c1ccccc1-2
growth inhibition: 92.3% (active)

compound: CN(C)C1C[C@@H](O[Si](C)(C)C(C)(C)C)C=C1S(=O)(=O)c1ccccc1 (stereo partly specified)
growth inhibition: 44.8% (inactive)

compound: CCS(=O)(=O)OC(C)CCl (stereo unspecified)
growth inhibition: -5.65% (inactive)

compound: C/C(=N\NS(=O)(=O)c1ccc(C)cc1)c1cc2ccccc2n1C
growth inhibition: 74.9% (active)

compound: Nc1c(/C=C/c2cc3ccc(C4=NCCN4)cc3[nH]2)[nH]c2cc(C3=NCCN3)ccc12
growth inhibition: 89.3% (active)

----------
protocol_notes: NCI Yeast Anticancer Drug Screen. Data for the bub3 strain (AID 167)
assay_conditions: S. cerevisiae bub3 mutant strain, at 50.0 µM (retest, dose inferred, filed as 5.0), active compounds read high
Compounds without any hit were thinned out: in the full panel of roughly 79,000, 15% have a hit.
Outcome label depends on growth inhibition relative to 70%: at/above gives 1.0, below gives 0.0.

molecule: CCOC(=O)C1SC(=Nc2cccc(Cl)c2C)N=C1C (configuration not stated)
answer_label: 1.0

molecule: CN(C)[C@H]1CC[C@H]2[C@@H]3CCC4C[C@@H](NC(=O)NC(Cc5ccccc5)c5nccs5)CC[C@]4(C)[C@H]3CC[C@]12C (some centres not stated)
answer_label: 0.0

molecule: OCCN1CCN(CCCN2c3cc(Cl)ccc3Sc3ccsc32)CC1
answer_label: 1.0

molecule: O=C1C(C(O)(C(F)(F)Cl)C(F)(F)Cl)CCCC1C(O)(C(F)(F)Cl)C(F)(F)Cl (configuration not stated)
answer_label: 1.0

molecule: NCCCC(=O)NC(Cc1cnc[nH]1)C(=O)O (configuration not stated)
answer_label: 0.0

molecule: O=NNc1ccc(-c2ccc([N+](=O)[O-])cc2)cn1
answer_label: 0.0

molecule: Oc1ccc(O)c2c1N=NC21c2ccccc2Oc2ccccc21
answer_label: 1.0

molecule: Cc1ccc(C)c(N(c2ccccc2[N+](=O)[O-])S(C)(=O)=O)c1
answer_label: 0.0

molecule: C=CCC1=C(C)C(OC(=O)/C=C/c2ccccc2Cl)CC1=O (configuration not stated)
answer_label: 1.0

molecule: Cc1ccc(SCc2ccccc2Cl)nn1
answer_label: 0.0

molecule: CC(O)CCc1nc2ccccc2[nH]1 (configuration not stated)
answer_label: 0.0

molecule: O=NN(CCCl)C(=O)Oc1ccc(OC(=O)N(CCCl)N=O)cc1
answer_label: 1.0

molecule: Clc1c(Cl)c(Cl)c(SC2C3CC4C(C3)C42)c(Cl)c1Cl (configuration not stated)
answer_label: 1.0

molecule: COc1ccc(-c2cc(-c3ccc4c(c3)CC(C)O4)nc(N)n2)cc1 (configuration not stated)
answer_label: 0.0

molecule: CCCCCCCCCCCc1nnc(N)o1
answer_label: 1.0

molecule: COc1ccc(/C(=N/NC(N)=O)C(c2ccc(OC)cc2)C2C(=O)Oc3ccccc32)cc1 (configuration not stated)
answer_label: 1.0

molecule: CCOC(=O)N/N=C/c1ccc([N+](=O)[O-])o1
answer_label: 1.0

molecule: O=C(O)CN(CCN1CC(=O)OC(=O)C1)CCN1CC(=O)OC(=O)C1
answer_label: 1.0

molecule: N#CSC#Cc1ccc(C#CSC#N)cc1
answer_label: 1.0

molecule: Cc1ccc2ccc3c(CCN(C)C)cc4c(c3c2c1O)OCO4
answer_label: 1.0

molecule: O=C(Oc1ccccc1)c1ccc2ccccc2c1O
answer_label: 0.0

molecule: COC(=Nc1ccccc1)SSC(C)C
answer_label: 1.0

molecule: CS(=O)(=O)OCCN(CCOS(C)(=O)=O)c1ccc(C=Nc2ccc(-c3cnc(-c4ccc(Cl)cc4)s3)cc2)c(Cl)c1
answer_label: 1.0

molecule: CC(C)(C)SC(=O)C1(C)OC1c1ccc([N+](=O)[O-])cc1 (configuration not stated)
answer_label: 0.0

molecule: O=C(Oc1c([N+](=O)[O-])cc(-c2ccc([N+](=O)[O-])cc2)cc1[N+](=O)[O-])c1ccccc1
answer_label: 1.0

molecule: CC(=O)NC1=C(Nc2ccc(-c3ccc(NC4=C(NC(C)=O)C(=O)c5ccccc5C4=O)cc3)cc2)C(=O)c2ccccc2C1=O
answer_label: 1.0

molecule: CCc1cccc(C(C)C)c1N1C(=O)C(=O)C(c2nc3ccccc3s2)C(=O)C1=O
answer_label: 0.0

molecule: O=C(N/C(=C\c1ccccc1)C(=O)N1CCN(c2ccccc2)CC1)c1ccccc1
answer_label: 0.0

molecule: O=C(Nc1ccccc1[N+](=O)[O-])/C(=N/Nc1cccc(Cl)c1)c1c(O)c2ccccc2oc1=O
answer_label: 0.0

molecule: CN(NC(=O)/C(=C/c1ccc2c(c1)OCO2)NC(=O)c1ccccc1)c1ccnc2cc(Cl)ccc12
answer_label: 0.0

molecule: CCOC(=O)c1cc(Cl)nc2ccc(OC)cc12
answer_label: 0.0

molecule: Cc1ccc2c(c1)[n+]([O-])c(N)n[n+]2[O-]
answer_label: 0.0

molecule: COC(=O)/C=C/c1c2ccccc2cc2ccccc12
answer_label: 0.0

molecule: [O-][n+]1ccccc1Sc1nc(Sc2cccc[n+]2[O-])nc(Sc2cccc[n+]2[O-])n1
answer_label: 1.0

molecule: CCCCCCCSCC1C(=O)C23CC1CCC2C12COC(O)C1C(C)(C)C(O)CC2OC3=O (configuration not stated)
answer_label: 1.0

molecule: c1cc2c(c3c1CN(C1CCCCC1)CO3)OCN(C1CCCCC1)C2
answer_label: 0.0

molecule: O=C(/N=C1\N=Nc2nc(C(C(=O)c3cccs3)c3nc4n(c3O)/C(=N/C(=O)Nc3ccc(Cl)cc3)N=N4)c(O)n21)Nc1ccc(Cl)cc1 (configuration not stated)
answer_label: 0.0

molecule: CC[C@H]1CN2CCc3cc(OC)c(OC)cc3[C@@H]2C[C@@H]1C[C@H]1NCCc2cc(OC)c(OC)cc21
answer_label: 0.0

molecule: CCOC(=O)C(NC(C)=O)[CH](c1ccccc1)[Sn]([c]1ccccc1)([c]1ccccc1)[c]1ccccc1 (configuration not stated)
answer_label: 1.0

molecule: Cc1ccc(S(=O)(=O)NNC(=O)c2sc(-c3nc(C)c(C(=O)NNS(=O)(=O)c4ccc(C)cc4)s3)nc2C)cc1
answer_label: 1.0

molecule: C=C1CC23CCC4C(C)(C(=O)O)CCCC4(C)C2CCC1C3 (configuration not stated)
answer_label: 1.0

----------
protocol_notes: NCI Yeast Anticancer Drug Screen. Data for the mec2-1 strain (AID 157)
assay_conditions: S. cerevisiae mec2-1 strain, at 50.0 µM (retest, dose inferred, filed as 5.0), active compounds read high
Compounds without any hit were thinned out: in the full panel of roughly 79,000, 15% have a hit. Calls of active or inactive are those of the source. Rule as the data show it: active = growth inhibition above about 70%; inactive = the rest.

molecule: CC(=O)NC1=C(Nc2ccc(-c3ccc(NC4=C(NC(C)=O)C(=O)c5ccccc5C4=O)cc3)cc2)C(=O)c2ccccc2C1=O
growth inhibition: 99% (active)
//
molecule: Cc1ccc(N2C(c3ccccc3)=CC(=C3C=CC(=O)C=C3)C=C2c2ccccc2)cc1
growth inhibition: 83% (active)
//
molecule: c1ccc([P+](c2ccccc2)(c2ccccc2)C2CCCCO2)cc1 (configuration not stated)
growth inhibition: 83% (active)
//
molecule: CCCn1cc2c(SC)nc(SC)nc2n1
growth inhibition: 46% (inactive)
//
molecule: COC(=O)/C(C#N)=C/c1cc(OC)c(O)cc1Br
growth inhibition: 44% (inactive)
//
molecule: CC1OC(C)C(O)C2=C1C(=O)c1ccccc1C2=O (configuration not stated)
growth inhibition: 77% (active)
//
molecule: C/C(O)=c1\cc(C#N)c(=C(C#N)C#N)nc1C
growth inhibition: 1% (inactive)
//
molecule: O=C1/C(=C\c2ccccc2)CN(C(=O)CCN2CCCCC2)C/C1=C/c1ccccc1
growth inhibition: 57% (inactive)
//
molecule: NNc1nc(Nc2ccccc2)nc(Nc2ccccc2)n1
growth inhibition: 10% (inactive)
//
molecule: C/C=C/CSc1cc(NC(=S)c2ccsc2C)ccc1Cl
growth inhibition: 82% (active)
//
molecule: O=C1C(Br)=C(Sc2ccc([N+](=O)[O-])cc2)C(=O)c2ccccc21
growth inhibition: 94% (active)
//
molecule: Oc1cc2c(cc1C(Nc1ncccn1)c1ccc(F)cc1)OCO2 (configuration not stated)
growth inhibition: 40% (inactive)
//
molecule: Cc1ccc2c(c1)C1(SC(CC(=O)O)C(=O)N1c1ccc(Cl)cc1)C(=O)N2 (configuration not stated)
growth inhibition: -1% (inactive)
//
molecule: FC(F)(F)c1ccc(NC(=S)SCc2ccc(Cl)cc2)cc1
growth inhibition: 99% (active)
//
molecule: S=c1[nH]nc(SCc2ccc(Cl)c(Cl)c2)c2[nH]cnc12
growth inhibition: -2% (inactive)
//
molecule: NCCCC(=O)NC(Cc1cnc[nH]1)C(=O)O (configuration not stated)
growth inhibition: -4% (inactive)
//
molecule: Cc1cc(N(CCOS(C)(=O)=O)CCOS(C)(=O)=O)ccc1C=Nc1cc(Br)c(O)c(Br)c1
growth inhibition: 63% (inactive)
//
molecule: O=C(O)CCn1c2ccccc2c2ccccc21
growth inhibition: 52% (inactive)
//
molecule: O=C1c2cccc(O)c2C(=O)c2c(O)cc(CO)cc21
growth inhibition: 94% (active)
//
molecule: OCCc1c2ccccc2cc2ccccc12
growth inhibition: -41% (inactive)
//
molecule: C=CCNc1nc2c(s1)C(=O)c1ccccc1C2=O
growth inhibition: 99% (active)
//
molecule: COc1ccc(/C(Cl)=C(\c2ccc(OCCN(C)C)cc2)c2ccc(OC(=O)C(C)(C)C)cc2)cc1
growth inhibition: 17% (inactive)
//
molecule: CC1=C(Br)S(=O)(=O)N(c2ccccc2)C(CBr)=C1Br
growth inhibition: 97% (active)
//
molecule: CCCCCC(C1SC(=S)NC1=O)C1SC(=S)NC1=O (configuration not stated)
growth inhibition: 1% (inactive)
//
molecule: OC1OCC(OCc2ccccc2)C(OCc2ccccc2)C1OCc1ccccc1 (configuration not stated)
growth inhibition: 59% (inactive)
//
molecule: CC(C)(Oc1ccc(-c2cccc3ccccc23)cc1)C(=O)O
growth inhibition: 51% (inactive)
//
molecule: C#CC(C)(C)OC(C)=O
growth inhibition: 0% (inactive)
//
molecule: Cc1cccc(C[N+](C)(C)CCCO)c1C
growth inhibition: 0% (inactive)
//
molecule: CCCCCCCCCCCCNCc1ccc(O)c(OC)c1
growth inhibition: 98% (active)
//
molecule: O=[N+]([O-])c1ccc(C2=C[P+](c3ccccc3)(c3ccccc3)C=C(c3ccccc3)O2)cc1
growth inhibition: 98% (active)
//
molecule: C/C(=N/O)c1ccc2c(c1)C(C)c1ccccc1-2 (configuration not stated)
growth inhibition: -54% (inactive)
//
molecule: N=C(N)c1ccc(Nc2ccc(C(=N)N)cc2)cc1
growth inhibition: -7% (inactive)
//
molecule: COC(=O)CCCC(=O)NC1=C(Nc2ccccc2)C(=O)c2ccccc2C1=O
growth inhibition: 41% (inactive)
//
molecule: O=C(O)CCC(O)=C1S(=O)(=O)OCCOS1(=O)=O
growth inhibition: 10% (inactive)
//
molecule: COc1ccc(-c2nnc(C)nc2-c2ccc(OC)cc2)cc1
growth inhibition: 7% (inactive)
//
molecule: S=C(Nc1ccc2cn[nH]c2c1)Nc1ccc2cn[nH]c2c1
growth inhibition: 0% (inactive)
//
molecule: CCOC(=O)C(C(=O)OCC)c1ccc([N+](=O)[O-])o1
growth inhibition: 96% (active)
//
molecule: CCOC1(OCC)Cc2nc3ccccc3cc21
growth inhibition: 96% (active)
//
molecule: Cc1ccc(S(=O)(=O)Oc2ccc(C(C)(C)C)cc2Cl)cc1
growth inhibition: -25% (inactive)
//
molecule: Cc1ccc(C2(O)c3ccccc3-c3ccccc32)cc1
growth inhibition: 100% (active)
//
molecule: O=C(Nc1ccc(Cl)cc1)c1cccc([N+](=O)[O-])c1O
growth inhibition: 11% (inactive)
//
molecule: NCc1ccc(O)c(O)c1O
growth inhibition: 80% (active)
//
molecule: O=C(CC(=O)C(F)(F)F)c1ccc(-c2ccccc2)cc1
growth inhibition: 99% (active)
//
molecule: CCCCCCCCCCCCCCCCCC(=O)OC(C)CCC1CCCO1 (configuration not stated)
growth inhibition: 0% (inactive)
//
molecule: Clc1ccc(CNc2ccc(Br)cc2)cc1
growth inhibition: 93% (active)
//
molecule: Cc1cc(C)nc(NS(=O)(=O)c2ccc(Nc3c4ccccc4nc4c(C(=O)NC(CO)(CO)CO)cccc34)cc2)n1
growth inhibition: -2% (inactive)
//
molecule: CN(C)CC[N+](C)(C)Cc1ccc(C[N+](C)(C)CC[N+](C)(C)Cc2ccc(CCl)cc2)cc1
growth inhibition: -1% (inactive)

src = PubChem BioAssay (NCI)
